Value source: the RNAGym collection of RNA variant scans (doi:10.7554/elife.80360)

Each item that follows carries a reported self-cleavage.
B1: HDV Ribozyme (parent)
chain: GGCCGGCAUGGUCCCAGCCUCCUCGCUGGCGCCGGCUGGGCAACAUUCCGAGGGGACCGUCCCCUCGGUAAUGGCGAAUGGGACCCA

variants of: B1; test: self-cleavage, relative activity (ratio to wild type); higher = more cleavage; co-transcriptional
Answer as a number with no unit attached.

Solved cases below.
- variant_code: "G10C G35C"
  self-cleavage: 0.102
- variant_code: "C21G C49U"
  self-cleavage: 0
- variant_code: "A8U C18G"
  self-cleavage: 0.172
- variant_code: "C3G C64A"
  self-cleavage: 0.528
- variant_code: "C32U G59U"
  self-cleavage: 0.795

Task item: Please report self-cleavage for the following variant: G1A A83U
Reply: 0

Task item: Give the reported value of self-cleavage for this record: G10C G74C
Reply: 0.161

Task item: Supply self-cleavage value. Item: A42C G76A
Reply: 0.113

Task item: Indicate the recorded self-cleavage value for this variant: U9G U69C
Reply: 1.25

Task item: State, in one line, measured self-cleavage of G10U U27G
Reply: 0.465

Task item: Please supply the value of reported self-cleavage for the item G28U G50U
Reply: 0.163

Task item: Tell me its self-cleavage given G39A C84A as the entry.
Reply: 0.415

Task item: Return the recorded self-cleavage value; entry: G50C G59U
Reply: 0.932

Task item: Look up and state reported self-cleavage for G31U A70U
Reply: 0.365

Task item: State, in one line, measured self-cleavage of C41A G68U
Reply: 0.561

Task item: Provide measured self-cleavage value, entry: U9C G59U
Reply: 1.17

Task item: Report measured self-cleavage; entry is C48G C63A
Reply: 0.435
